# Procedure summary: photoluminescence quantum yield (fraction); solvent given as SMILES
# Condition: in CS(C)=O
Provide the recorded photoluminescence quantum yield for the entries that follow.
Just the number, please, no unit attached.

Q) Looking for the measured photoluminescence quantum yield of Cc1ccc(-n2c3ccccc3c3cc(C=C(C#N)C#N)ccc32)cc1 , can you help?
A) 0.04

Q) Now consider Cc1ccc(-c2nc(-c3ccc(-c4nc(-c5ccc(C)cc5)c(-c5ccc(C)cc5)[nH]4)cc3)[nH]c2-c2ccc(C)cc2)cc1 and answer again.
A) 0.96

Q) Another molecule to look at: CCCCCCCC1=C(C)C(=O)n2c1cc1[nH]c(C(=O)OC)c(C)c1c2=O
A) 0.83

Q) Try this molecule next: CCC1(CC)c2cc(C=C(C#N)C#N)ccc2-c2ccc(N(C)C)cc21
A) 0.24

Q) CN1/C(=C/C=C/C2=[N+](C)c3ccccc3C2(C)C)Sc2ccccc21 , same question.
A) 0.07

Q) And CCCCOc1ccc2cc(-c3ccc(C)cc3)c(=O)oc2c1 ?
A) 0.585

Q) Now the same for CN(c1ccccc1)c1ccc(/C=C2\C(=O)c3ccccc3S2(=O)=O)cc1
A) 0.018

Q) Repeat with CN(C)c1ccc(C#Cc2ccccc2)cc1
A) 0.29

Q) Now the molecule CC(C)[Si]1(C(C)C)c2ccccc2-c2ccc(N(C)C)cc21
A) 0.12

Q) COc1ccc(-c2csc(-c3ccncc3)n2)cc1 ?
A) 0.163

Q) Another molecule: CCC1=C(C)c2cc3c(OC)cc(OC)cc3c(=O)n2C1=O
A) 0.6

Q) Param item: CCOC(=O)CN1C(=O)C2=C(c3ccc(N4CCCCC4)cc3)N(CC(=O)OCC)C(=O)C2=C1c1ccccc1
A) 0.12

Q) Another: CCN1c2ccc(/C=N/Nc3ccccn3)cc2Sc2cc(-c3ccc(C#N)cc3)ccc21
A) 0.23

Q) Same question for CN(C)c1ccc(/C=C/C=N/N=C/c2ccc3ccc4cccc5ccc2c3c45)cc1 please.
A) 0.044

Q) Another molecule to look at: CCN1\C(=C/C=C/C=C/C2=[N+](CC)c3ccc4ccccc4c3C2(C)C)C(C)(C)c2c1ccc1ccccc21
A) 0.302

Q) Note, next up: O=C1CCCC2=C1C(c1ccc([N+](=O)[O-])cc1)c1c(c3ccccc3oc1=O)N2 (configuration not stated)
A) 0.014

Q) Same for C(/C=C/Nc1cccc2ccccc12)=[NH+]c1cccc2ccccc12
A) 0.01

Q) One more molecule: COc1cccc(-c2nc3sc4ccccc4c3s2)c1
A) 0.62

Q) Another: Nc1cccc2cccc(N)c12
A) 0.3

Q) CCCCN(CCCC)c1ccc(/C=C/c2ccc3c(c2)CCc2cc(/C=C/c4ccc(N(CCCC)CCCC)cc4)ccc2-3)cc1 , same question.
A) 0.87

Q) Same read-out for CCOC(=O)c1sc(SC)c2c(=O)n(C)nnc12 ?
A) 0.0077

Q) Param item: COc1ccc2cc(-c3cc4ccc(OC)cc4oc3=O)oc2c1
A) 0.75
